Would you mind telling me the reported EC50 of each entry?
- Species on record: Felis catus
- assayNotes: Chronotropic effects were assayed in vitro in the isolated right artium of the cat.
- Type: functional
- testContext: Felis catus; read-out: EC50

Previously resolved entries follow.
[
  {
    "chemicalString": "Cc1nc(S)c(C#N)c(NCc2cccnc2)n1",
    "EC50": "80 µM"
  },
  {
    "chemicalString": "CCCNc1nc(C)nc(O)c1C#N",
    "EC50": "17 µM"
  }
]

Quick request: EC50 for each listed item, please.
1. Cc1nc(O)c(C#N)c(NCCc2ccccn2)n1
2. CCc1nc(O)c(C#N)c(NCc2cccnc2)n1

Reply:
1: 71 µM; 2: 86 µM

Query: Please indicate EC50 recorded for Cc1nc(O)c(C#N)c(NCc2ccco2)n1
Reply: 88 µM
